This collection of values is drawn from paper PMC10726481.

Kindly state MIC C. glabrata ATCC 15126 for each of the entries shown.
# Test system: C. glabrata ATCC 15126
# assay-remarks: microbe, parasite or virus in culture
# Assay type: cell-based
# settings: ATCC 15126, 24 h
Bridge positions count the residues as written; N and C are the ends. Square brackets hold non-standard residues; d marks the D form. Peptide text beside a SMILES is read from it. d(aIle) = CC[C@H](C)[C@@H](N)C(=O)O; dNMeF = CN[C@H](Cc1ccccc1)C(=O)O; Nle = CCCC[C@H](N)C(=O)O; dDap = NC[C@@H](N)C(=O)O
Hi! Could you send only the number? It should be in µg/mL, unit omitted.

So, CC[C@H](C)[C@@H]1NC(=O)[C@H](CCCNC(=N)N)NC(=O)[C@H](C)NC(=O)[C@H](NC(=O)[C@H](CO)NC(=O)[C@@H](NC(=O)[C@H](NC(=O)[C@@H](CCCNC(=N)N)NC(=O)[C@H](CO)NC(=O)[C@@H](NC(=O)[C@@H](Cc2ccccc2)NC)[C@@H](C)CC)[C@@H](C)CC)[C@@H](C)CC)CNC1=O [TXGS-5] (H-[dNMeF]IS[dR][d(aIle)]IS[dDap]ARI; lactam 8-C) ? Its MIC C. glabrata ATCC 15126 was 512

The measured MIC C. glabrata ATCC 15126 associated with CCCC[C@@H]1NC(=O)[C@H](CCCNC(=N)N)NC(=O)[C@H](C)NC(=O)[C@H](NC(=O)[C@H](CO)NC(=O)[C@@H](NC(=O)[C@H](NC(=O)[C@@H](CCCNC(=N)N)NC(=O)[C@H](CO)NC(=O)[C@@H](NC(=O)[C@H](N)Cc2ccccc2)[C@@H](C)CC)[C@@H](C)CC)[C@@H](C)CC)CNC1=O [TXGS-8] (H-[dF]IS[dR][d(aIle)]IS[dDap]AR[Nle]; lactam 8-C) reads 128

Sample CCCC[C@@H]1NC(=O)[C@H](CCCNC(=N)N)NC(=O)[C@H](C)NC(=O)[C@H](NC(=O)[C@H](CO)NC(=O)[C@@H](NC(=O)[C@H](NC(=O)[C@@H](CCCNC(=N)N)NC(=O)[C@H](CO)NC(=O)[C@@H](NC(=O)[C@@H](Cc2ccccc2)NC)[C@@H](C)CC)[C@@H](C)CC)[C@@H](C)CC)CNC1=O [TXGS-7] (H-[dNMeF]IS[dR][d(aIle)]IS[dDap]AR[Nle]; lactam 8-C) ; MIC C. glabrata ATCC 15126 observed: 64
